TARGET: Guanine nucleotide-binding protein G(i) subunit alpha-1 (Homo sapiens)
ASSAY OVERVIEW: Activation of human Gi protein alpha1 subunit expressed in Escherichia coli assessed as protein bound [35S]GTPgammaS levels at 10 uM by scintillation spectroscopy
Assay type: functional
// label = class 1 if Activity is not less than 90 fmol, otherwise class 0

1) CCCCCCCCCCCCCCCNCC1CCN(CCNC=O)CC1 ... class 1
2) CCCCCCCCCCCCCCCNC1CCNCC1 ... class 0
3) CCCCCCCCCCCCCCCN1CCC(C2CCN(CCN)CC2)CC1 ... class 1
4) CCCCCCCCCCCCCCCN1CCC(NC(=O)[C@@H](N)CCCCN)CC1 ... class 1
5) CCCCCCCCCCCCCCCN1CCC(C2CCN(CCNC(=O)[C@@H](N)CCCCN)CC2)CC1 ... class 1
6) CCCCCCCCCCCCCCC(=O)N1CCC(C2CCN(CCN)CC2)CC1 ... class 0
